Assay: isobaric coefficient of expansion
Settings: 328.15 K; 30000 kPa; Liquid; DSC
Below, each of the compounds is paired with its reported isobaric coefficient of expansion value.

# annotated cases, reported isobaric coefficient of expansion shown
CCC#N [propanenitrile] :: 0.00114 1/K
CCC[N+](=O)[O-] [1-nitropropane] :: 0.000981 1/K
N#Cc1ccccc1 [benzonitrile] :: 0.000782 1/K

Item O=[N+]([O-])c1ccccc1 [nitrobenzene] has what recorded isobaric coefficient of expansion? 0.000761 1/K

Lookup CC[N+](=O)[O-] [nitroethane] 0.00104 1/K

Request: C[N+](=O)[O-] [nitromethane] 0.00112 1/K
